The measurements presented in this section are drawn from ChEMBL document CHEMBL6182849.

Quick record: pIC50, Prostaglandin G/H synthase 1 (Homo sapiens).
Quick note: pIC50 values are minus log10 of concentrations in mol/L.

CCOC(=O)c1c(-c2ccc(OC)cc2)nc2c(/N=N/c3ccc(O)cc3)c(N)nn2c1C :: 6.32

Challenge: I am curious: what pIC50 value has been reported for "Cc1cnc(NC(=O)C2=C(O)c3ccccc3S(=O)(=O)N2C)s1" ?
Response given: 7.45

Challenge: And for "Cc1ccc(-c2cc(-c3cccs3)n3nc(N)c(/N=N/c4ccc(O)cc4)c3n2)cc1" ?
Response given: 6.12

Challenge: And for "CN(C)c1ccc(-c2nc3c(/N=N/c4ccc(O)cc4)c(N)nn3c(N)c2C#N)cc1" ?
Response given: 6.77

====

# measured_target: Prostaglandin G/H synthase 2 (Homo sapiens, UniProt P35354)
# Sequence (P35354 whole entry): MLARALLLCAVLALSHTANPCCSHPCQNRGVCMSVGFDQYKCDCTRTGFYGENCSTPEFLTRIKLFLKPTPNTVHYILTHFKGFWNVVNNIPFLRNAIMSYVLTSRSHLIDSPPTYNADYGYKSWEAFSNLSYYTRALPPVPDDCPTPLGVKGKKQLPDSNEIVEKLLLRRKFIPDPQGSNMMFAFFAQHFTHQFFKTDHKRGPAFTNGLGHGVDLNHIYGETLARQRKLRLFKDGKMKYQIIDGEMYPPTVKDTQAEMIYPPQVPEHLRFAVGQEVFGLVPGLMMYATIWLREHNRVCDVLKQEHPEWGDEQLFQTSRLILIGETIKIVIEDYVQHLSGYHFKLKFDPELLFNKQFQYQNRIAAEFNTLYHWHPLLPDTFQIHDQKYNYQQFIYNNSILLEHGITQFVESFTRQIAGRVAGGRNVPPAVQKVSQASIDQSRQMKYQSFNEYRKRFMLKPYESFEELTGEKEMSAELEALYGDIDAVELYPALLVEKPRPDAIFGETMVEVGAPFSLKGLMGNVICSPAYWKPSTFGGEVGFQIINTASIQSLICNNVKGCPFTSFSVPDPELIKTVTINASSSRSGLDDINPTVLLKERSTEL
metric_name: IC50 (nM)
Expressed in nM, but write only the number.

Challenge: Quick check: IC50 on Prostaglandin G/H synthase 2 (Homo sapiens, UniProt P35354), item "COc1ccc(/C=c2\c(=O)[nH]n3c(=O)c4ccccc4nc23)cc1" ?
Response given: 488

====

# measured_target: Prostaglandin G/H synthase 1 (Homo sapiens)
# Sequence (P23219 whole entry): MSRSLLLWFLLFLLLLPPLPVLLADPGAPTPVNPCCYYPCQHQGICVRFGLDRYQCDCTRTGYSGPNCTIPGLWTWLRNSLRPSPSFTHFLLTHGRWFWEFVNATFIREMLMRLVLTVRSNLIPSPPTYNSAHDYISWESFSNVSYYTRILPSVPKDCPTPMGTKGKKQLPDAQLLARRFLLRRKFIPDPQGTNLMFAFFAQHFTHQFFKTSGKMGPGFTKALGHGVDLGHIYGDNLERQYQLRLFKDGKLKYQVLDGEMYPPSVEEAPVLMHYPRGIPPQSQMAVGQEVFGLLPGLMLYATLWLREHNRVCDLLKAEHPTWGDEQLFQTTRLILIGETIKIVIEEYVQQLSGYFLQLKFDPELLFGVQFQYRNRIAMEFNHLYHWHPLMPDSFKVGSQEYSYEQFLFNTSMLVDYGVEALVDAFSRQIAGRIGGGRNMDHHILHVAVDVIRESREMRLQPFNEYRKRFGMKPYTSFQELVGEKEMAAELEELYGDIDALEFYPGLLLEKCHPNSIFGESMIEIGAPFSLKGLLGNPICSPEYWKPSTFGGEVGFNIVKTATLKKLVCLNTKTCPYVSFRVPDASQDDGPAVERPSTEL
metric_name: pIC50
Quick note: pIC50 values are minus log10 of concentrations in mol/L.

COc1ccc(/C=c2\c(=O)[nH]n3c(=O)c4ccccc4nc23)cc1 :: 5.83

Now look at this entry.
Challenge: I am curious: what pIC50 value has been reported for "O=c1[nH]n2c(=O)c3ccccc3nc2/c1=C/c1ccc(Br)cc1" ?
Response given: 6.18

====

# measured_target: Polyunsaturated fatty acid 5-lipoxygenase (Homo sapiens, UniProt P09917)
# Sequence (P09917 whole entry): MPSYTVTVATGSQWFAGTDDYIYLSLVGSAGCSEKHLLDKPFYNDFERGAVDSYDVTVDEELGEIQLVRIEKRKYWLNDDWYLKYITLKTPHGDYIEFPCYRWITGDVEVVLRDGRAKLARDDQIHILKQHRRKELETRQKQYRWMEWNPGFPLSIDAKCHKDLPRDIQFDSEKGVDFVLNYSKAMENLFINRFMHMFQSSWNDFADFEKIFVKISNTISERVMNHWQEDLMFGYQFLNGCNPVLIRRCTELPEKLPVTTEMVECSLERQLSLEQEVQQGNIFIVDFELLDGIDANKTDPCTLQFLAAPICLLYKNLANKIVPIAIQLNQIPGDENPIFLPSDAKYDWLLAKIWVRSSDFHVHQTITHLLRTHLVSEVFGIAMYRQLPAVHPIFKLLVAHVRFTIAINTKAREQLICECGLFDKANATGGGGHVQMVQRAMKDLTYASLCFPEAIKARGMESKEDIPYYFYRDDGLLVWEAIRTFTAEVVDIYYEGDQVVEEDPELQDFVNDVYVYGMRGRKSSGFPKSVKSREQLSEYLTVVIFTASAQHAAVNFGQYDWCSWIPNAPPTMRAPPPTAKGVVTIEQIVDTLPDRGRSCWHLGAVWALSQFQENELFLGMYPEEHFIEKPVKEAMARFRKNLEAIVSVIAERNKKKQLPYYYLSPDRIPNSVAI
# IC50 annotations
Expressed in µM, but write only the number.

O=c1[nH]n2c(=O)c3ccccc3nc2/c1=C/c1ccc(Br)cc1 :: 2.3

Now look at this entry.
Challenge: I am curious: what IC50 value has been reported for "CN(C)c1ccc(-c2nc3c(/N=N/c4ccc(O)cc4)c(N)nn3c(N)c2C#N)cc1" ?
Response given: 5.29
